The entries below are paired with their reported Kd.
Target: T1, cynomolgus alpha2-Antiplasmin (cynomolgus (Macaca fascicularis), UniProt P08697 28-491 (human entry))
T1 construct: Made in house in the same way as the rabbit protein; also called cynomolgus A2AP; Macaca fascicularis A2AP
T1 chain: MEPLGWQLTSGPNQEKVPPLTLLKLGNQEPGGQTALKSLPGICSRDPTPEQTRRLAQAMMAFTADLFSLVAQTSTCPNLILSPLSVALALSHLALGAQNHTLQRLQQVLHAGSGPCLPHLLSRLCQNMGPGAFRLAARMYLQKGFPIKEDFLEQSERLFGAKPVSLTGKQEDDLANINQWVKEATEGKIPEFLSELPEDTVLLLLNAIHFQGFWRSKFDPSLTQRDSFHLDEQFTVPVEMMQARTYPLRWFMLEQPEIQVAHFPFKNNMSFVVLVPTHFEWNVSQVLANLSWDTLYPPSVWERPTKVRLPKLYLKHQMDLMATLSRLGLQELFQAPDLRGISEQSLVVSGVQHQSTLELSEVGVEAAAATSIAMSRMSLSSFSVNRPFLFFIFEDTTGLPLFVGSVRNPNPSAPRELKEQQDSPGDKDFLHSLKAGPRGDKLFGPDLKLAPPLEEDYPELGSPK
Test: SPR Biacore T200, antibody captured on protein G chip, A2AP as analyte, 25 C
Enter your answer as a number in nM; do not include the unit.

Recorded results for 2 binders are shown here.
TPP-17045 hIgG1 (antibody, V domains shown, Germline variant of TPP-14308) VH: EVQLLESGGGLVQPGGSLRLSCAASGFTFDDYAMSWVRQAPGKGLEWVSAIGTGGGTYYADSVKGRFTISRDNSKNTLYLQMNSLRAEDTAVYYCAKEGYDSSGYYHLDYWGQGTLVTVSS VL: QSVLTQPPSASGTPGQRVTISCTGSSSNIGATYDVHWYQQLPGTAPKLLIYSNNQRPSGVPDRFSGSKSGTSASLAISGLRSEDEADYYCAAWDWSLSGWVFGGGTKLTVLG
11
TPP-14308 hIgG1 (antibody, V domains shown, starting point of the germlining) VH: EVQLLESGGGLVQPGGSLRLSCAASGFTFDDYAMSWVRQAPGKGLEWVSAIGTGGGTYYADSVKGRFTISRDNSKNTLYLQMNSLRAEDTAVYYCAREGYDSSGYYHLDYWGQGTLVTVSS VL: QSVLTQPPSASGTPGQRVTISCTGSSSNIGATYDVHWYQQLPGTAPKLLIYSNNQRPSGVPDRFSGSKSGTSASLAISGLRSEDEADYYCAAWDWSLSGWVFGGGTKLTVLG
3.1

With those in mind, consider the next binder.
Prompt: Return value of Kd for input TPP-17053 hIgG1 (antibody, V domains shown, Germline variant of TPP-14308) VH: EVQLLESGGGLVQPGGSLRLSCAASGFTFDDYAMSWVRQAPGKGLEWVSAIGSGGSTYYADSVKGRFTISRDNSKNTLYLQMNSLRAEDTAVYYCAREGYDSSGYYHLDYWGQGTLVTVSS VL: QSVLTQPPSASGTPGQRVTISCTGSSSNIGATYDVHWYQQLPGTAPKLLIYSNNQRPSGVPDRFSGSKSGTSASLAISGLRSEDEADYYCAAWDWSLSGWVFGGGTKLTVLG , no commentary.
Response: 8.7
